- System: COLO 205
- ASSAY DETAILS: Cell cycle arrest in human COLO205 cells assessed as accumulation at S phase at 2 uM after 24 hrs by propidium iodide staining-based FACS flow cytometric analysis (reference value: 4.21%)
- Format: functional
Answer each item with its documented Percent of cells in S phase.
Please reply with the bare figure in % and do not write the unit itself.

Inquiry: Give COLO 205 Percent of cells in S phase for COc1ccc(NC(=O)Nc2ccc(C(=O)N[C@@H]3c4cc5c(cc4[C@@H](c4cc(OC)c(OC)c(OC)c4)[C@H]4C(=O)OC[C@@H]43)OCO5)cc2)cc1
Reply text: 5.09

Inquiry: Give COLO 205 Percent of cells in S phase for COc1cc([C@@H]2c3cc4c(cc3[C@@H](NC(=O)c3ccc(NC(=O)NCCCl)cc3)[C@H]3COC(=O)[C@H]23)OCO4)cc(OC)c1OC
Reply text: 5.62

Inquiry: Give COLO 205 Percent of cells in S phase for COc1cc([C@@H]2c3cc4c(cc3[C@@H](NC(=O)c3ccc(NC(=O)Nc5ccc(Cl)cc5)cc3)[C@H]3COC(=O)[C@H]23)OCO4)cc(OC)c1OC
Reply text: 4.83

Inquiry: Give COLO 205 Percent of cells in S phase for COc1cc([C@@H]2c3cc4c(cc3[C@@H](NC(=O)c3ccc(NC(=O)NCCBr)cc3)[C@H]3COC(=O)[C@H]23)OCO4)cc(OC)c1OC
Reply text: 5.96

Inquiry: Give COLO 205 Percent of cells in S phase for COc1cc([C@@H]2c3cc4c(cc3[C@@H](O[C@@H]3O[C@@H]5CO[C@@H](C)O[C@H]5[C@H](O)[C@H]3O)[C@H]3COC(=O)[C@H]23)OCO4)cc(OC)c1O [ETOPOSIDE]
Reply text: 7.36
